B1: OAS1 (parent)
chain: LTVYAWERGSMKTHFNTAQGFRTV

Variants of: B1
Test: protein stability index of a GFP-peptide fusion (GPS, HEK-293T) (PSI 1-6); higher = more stable;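 further: lentivirally expressed fusions sorted by FACS into six bins by GFP to DsRed ratio, PSI derived from sequencing read proportions per bin multiplied by bin number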
Settings: c terminus: a fixed tail appended
measured.parameter: protein stability index
Answers are plain numbers.

These solved cases illustrate the format of a correct answer.
Lookup: Look at this variant and give its reported protein stability index. "M11Y"
Found: 3.28

Lookup: // query: "H14L"
Found: 2.88

Lookup: // query: "R22V"
Found: 2.33

Lookup: // query: "Y4C"
Found: 1.38

Lookup: // query: "T23R"
Found: 1.4

Value sought for every listed variant: protein stability index.
1. V24G
2. A18F
3. Q19L
4. A5M
5. E7T
6. G20T
7. Y4E
8. F21A

Found:
1.73
2.56
3.4
2.06
3.32
2.89
1.97
1.9
